Reference source for all entries: ChEMBL document CHEMBL1152290

Molecular target: Multidrug resistance-associated protein 1 (Homo sapiens, UniProt P33527)
Sequence (P33527 whole entry): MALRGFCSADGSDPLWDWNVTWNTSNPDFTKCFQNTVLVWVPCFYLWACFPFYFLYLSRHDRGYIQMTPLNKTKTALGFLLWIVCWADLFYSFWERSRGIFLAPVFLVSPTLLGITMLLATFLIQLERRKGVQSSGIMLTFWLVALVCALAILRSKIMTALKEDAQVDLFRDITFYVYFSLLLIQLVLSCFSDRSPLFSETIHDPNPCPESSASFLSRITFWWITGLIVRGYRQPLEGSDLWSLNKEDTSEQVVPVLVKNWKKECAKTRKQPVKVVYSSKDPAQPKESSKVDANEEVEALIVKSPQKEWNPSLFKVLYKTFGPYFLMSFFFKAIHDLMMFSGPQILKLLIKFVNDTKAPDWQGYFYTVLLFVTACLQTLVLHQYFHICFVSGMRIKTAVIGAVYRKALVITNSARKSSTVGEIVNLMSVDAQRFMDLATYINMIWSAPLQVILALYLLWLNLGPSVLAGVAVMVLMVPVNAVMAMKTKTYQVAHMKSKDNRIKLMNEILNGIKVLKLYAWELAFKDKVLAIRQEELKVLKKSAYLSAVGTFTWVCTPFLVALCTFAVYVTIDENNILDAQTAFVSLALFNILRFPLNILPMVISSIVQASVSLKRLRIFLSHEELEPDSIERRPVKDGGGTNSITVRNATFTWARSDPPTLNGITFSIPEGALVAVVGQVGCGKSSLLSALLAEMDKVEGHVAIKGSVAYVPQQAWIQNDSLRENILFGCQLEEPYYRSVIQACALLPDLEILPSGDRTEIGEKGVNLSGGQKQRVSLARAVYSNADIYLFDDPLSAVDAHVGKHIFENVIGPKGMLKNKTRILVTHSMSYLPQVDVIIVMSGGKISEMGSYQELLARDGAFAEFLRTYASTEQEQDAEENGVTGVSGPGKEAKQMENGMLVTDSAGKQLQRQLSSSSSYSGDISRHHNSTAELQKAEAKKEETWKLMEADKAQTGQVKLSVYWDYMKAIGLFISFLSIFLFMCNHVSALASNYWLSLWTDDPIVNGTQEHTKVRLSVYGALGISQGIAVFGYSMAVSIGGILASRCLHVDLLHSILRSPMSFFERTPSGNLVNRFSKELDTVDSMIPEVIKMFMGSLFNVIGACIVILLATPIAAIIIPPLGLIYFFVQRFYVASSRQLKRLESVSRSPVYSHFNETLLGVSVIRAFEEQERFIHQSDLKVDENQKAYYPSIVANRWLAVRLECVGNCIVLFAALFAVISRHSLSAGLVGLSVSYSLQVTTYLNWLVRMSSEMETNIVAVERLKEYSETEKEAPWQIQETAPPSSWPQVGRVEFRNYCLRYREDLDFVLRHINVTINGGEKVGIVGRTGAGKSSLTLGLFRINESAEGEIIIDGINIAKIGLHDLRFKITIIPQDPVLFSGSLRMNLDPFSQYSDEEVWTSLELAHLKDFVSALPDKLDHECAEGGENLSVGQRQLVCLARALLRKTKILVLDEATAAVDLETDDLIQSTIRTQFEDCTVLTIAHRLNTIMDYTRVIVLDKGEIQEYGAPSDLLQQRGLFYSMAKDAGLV
Experiment: Inhibition of MRP1 expressed in human 2008 cells assessed as calcein-AM accumulation at 10 uM by spectrofluorimetry
Type: cell-based
Conditions: human, 2008, 10 µM

{"SMILES_RECORD": "COc1ccc2c(c1)OC[C@@H]1[C@H]2C2=C(OC1(C)C)C(=O)C1=C(OC(C)(C)[C@@H]3COc4cc(OC)ccc4[C@H]13)C2=O", "Activity": "Not Active"}
{"SMILES_RECORD": "C[C@@H]1CC[C@@H]2[C@@H](C1)C1=C(OC2(C)C)C(=O)C2=C(OC(C)(C)[C@@H]3CC[C@@H](C)C[C@@H]23)C1=O", "Activity": "Not Active"}
{"SMILES_RECORD": "COc1ccc2c(c1)OC[C@H]1[C@@H]2C2=C(OC1(C)C)C1=C(C(=O)C2=O)[C@@H]2c3ccc(OC)cc3OC[C@@H]2C(C)(C)O1", "Activity": "Not Active"}
{"SMILES_RECORD": "COc1ccc2c(c1)OC[C@H]1[C@@H]2C2=C(OC1(C)C)C1=C(C(=O)C2=O)[C@H]2c3ccc(OC)cc3OC[C@H]2C(C)(C)O1", "Activity": "Not Active"}

---

# pKi annotations
Target: ATP-dependent translocase ABCB1 (Homo sapiens)
pKi is defined as minus the log10 of a concentration measured in mol/L.

{"SMILES_RECORD": "COc1ccc2c(c1)OC[C@H]1[C@@H]2C2=C(OC1(C)C)C1=C(C(=O)C2=O)[C@H]2c3ccc(OC)cc3OC[C@H]2C(C)(C)O1", "pKi": 6.38}

Attention now turns to another entry.
[Q] Reported pKi for "COc1ccc2c(c1)OC[C@H]1[C@@H]2C2=C(OC1(C)C)C1=C(C(=O)C2=O)[C@@H]2c3ccc(OC)cc3OC[C@@H]2C(C)(C)O1" : what is it?
[A] 5.98

---

Molecular target: ATP-dependent translocase ABCB1 (Homo sapiens, UniProt P08183)
Sequence (P08183 whole entry): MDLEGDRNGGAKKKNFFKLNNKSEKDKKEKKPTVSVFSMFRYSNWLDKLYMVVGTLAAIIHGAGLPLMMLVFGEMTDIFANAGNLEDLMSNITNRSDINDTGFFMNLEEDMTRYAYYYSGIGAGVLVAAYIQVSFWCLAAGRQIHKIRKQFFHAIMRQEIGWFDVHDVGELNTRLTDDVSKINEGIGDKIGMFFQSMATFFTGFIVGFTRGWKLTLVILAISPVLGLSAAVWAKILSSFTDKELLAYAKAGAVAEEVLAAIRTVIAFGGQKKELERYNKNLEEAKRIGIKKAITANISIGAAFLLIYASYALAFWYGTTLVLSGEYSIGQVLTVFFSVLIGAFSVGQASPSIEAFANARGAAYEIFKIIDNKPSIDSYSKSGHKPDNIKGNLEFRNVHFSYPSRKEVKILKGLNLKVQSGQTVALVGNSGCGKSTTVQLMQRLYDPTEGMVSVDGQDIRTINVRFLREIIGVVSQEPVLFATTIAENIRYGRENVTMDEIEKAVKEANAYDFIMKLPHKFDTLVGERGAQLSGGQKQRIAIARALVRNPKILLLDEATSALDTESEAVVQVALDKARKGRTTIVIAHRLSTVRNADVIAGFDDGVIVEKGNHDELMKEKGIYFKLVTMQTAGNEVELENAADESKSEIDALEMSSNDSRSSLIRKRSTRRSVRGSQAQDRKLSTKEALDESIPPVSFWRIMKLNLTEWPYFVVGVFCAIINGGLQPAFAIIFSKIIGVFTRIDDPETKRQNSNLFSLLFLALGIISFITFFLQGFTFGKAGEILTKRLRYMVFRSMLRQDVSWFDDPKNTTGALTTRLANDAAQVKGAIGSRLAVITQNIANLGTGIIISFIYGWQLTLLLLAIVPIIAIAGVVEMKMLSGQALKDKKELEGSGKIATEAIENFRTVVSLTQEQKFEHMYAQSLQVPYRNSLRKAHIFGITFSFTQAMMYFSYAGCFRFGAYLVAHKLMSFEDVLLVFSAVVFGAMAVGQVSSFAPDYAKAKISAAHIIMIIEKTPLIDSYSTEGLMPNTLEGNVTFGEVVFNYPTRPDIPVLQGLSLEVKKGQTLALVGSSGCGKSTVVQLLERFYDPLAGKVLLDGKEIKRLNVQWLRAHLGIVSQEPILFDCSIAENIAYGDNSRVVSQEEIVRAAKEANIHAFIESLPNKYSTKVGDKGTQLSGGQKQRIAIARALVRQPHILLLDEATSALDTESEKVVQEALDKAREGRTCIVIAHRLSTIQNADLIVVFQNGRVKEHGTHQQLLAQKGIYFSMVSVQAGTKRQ
Test: Inhibition of human MDR1 overexpressed in mouse NIH/3T3 cells assessed as daunorubicin accumulation by flow cytometry relative to control
Format: cell-based
Details: nih3t3
ENDPOINT_NAME: inhibition (INH) (%)
Field format: number, assumed %, no unit text.

{"SMILES_RECORD": "COc1ccc2c(c1)OC[C@H]1[C@@H]2C2=C(OC1(C)C)C1=C(C(=O)C2=O)[C@@H]2c3ccc(OC)cc3OC[C@@H]2C(C)(C)O1", "inhibition (INH) / %": 112.5}

[Q] Please look up its inhibition (INH): "COc1ccc2c(c1)OC[C@H]1[C@@H]2C2=C(OC1(C)C)C1=C(C(=O)C2=O)[C@H]2c3ccc(OC)cc3OC[C@H]2C(C)(C)O1"
[A] 105.8

[Q] Repeat with "C[C@@H]1CC[C@@H]2[C@@H](C1)C1=C(OC2(C)C)C(=O)C2=C(OC(C)(C)[C@@H]3CC[C@@H](C)C[C@@H]23)C1=O"
[A] 72

[Q] Now consider "COc1ccc2c(c1)OC[C@@H]1[C@H]2C2=C(OC1(C)C)C(=O)C1=C(OC(C)(C)[C@@H]3COc4cc(OC)ccc4[C@H]13)C2=O" and answer again.
[A] 104.3

---

Measured cytotoxicity at 72 h, 10 µM accompanies every entry in the list below.
Experiment: Intrinsic cytotoxicity against wild type mouse NIH/3T3 cells at 10 uM after 72 hrs by MTT assay
Assay type: cell-based, NIH3T3
Settings: wild type NIH/3T3 cells, read-out: INH
Give just the numeric value; % need not be written.

{"MOLECULE": "COc1ccc2c(c1)OC[C@H]1[C@@H]2C2=C(OC1(C)C)C1=C(C(=O)C2=O)[C@@H]2c3ccc(OC)cc3OC[C@@H]2C(C)(C)O1", "RESULT_UNIT": "%", "NUMERIC_VALUE": 24.7}
{"MOLECULE": "O[C@@H](COc1cccc2ncccc12)CN1CCN([C@@H]2c3ccccc3[C@@H]3[C@H](c4ccccc42)C3(F)F)CC1 [ZOSUQUIDAR]", "RESULT_UNIT": "%", "NUMERIC_VALUE": 2.4}
{"MOLECULE": "C[C@@H]1CC[C@@H]2[C@@H](C1)C1=C(OC2(C)C)C(=O)C2=C(OC(C)(C)[C@@H]3CC[C@@H](C)C[C@@H]23)C1=O", "RESULT_UNIT": "%", "NUMERIC_VALUE": 0}
{"MOLECULE": "COc1ccc2c(c1)OC[C@H]1[C@@H]2C2=C(OC1(C)C)C1=C(C(=O)C2=O)[C@H]2c3ccc(OC)cc3OC[C@H]2C(C)(C)O1", "RESULT_UNIT": "%", "NUMERIC_VALUE": 9.7}

Turning to the following molecule.
[Q] Could you tell me which cytotoxicity at 72 h, 10 µM is on file for "COc1ccc2c(c1)OC[C@@H]1[C@H]2C2=C(OC1(C)C)C(=O)C1=C(OC(C)(C)[C@@H]3COc4cc(OC)ccc4[C@H]13)C2=O" ?
[A] 6.5
